- Tested on: murine splenocyte
- method_summary: murine splenocyte assay for immunosuppressive activity
- Type: cell-based
- conditions: mouse splenocyte assay, methods of Example 2.5; read-out: Splenocyte IC50
Below, each entry is listed alongside its reported IC50.
observation_type: IC50 (nM)

>>> endpoint_value("CO[C@@H]1C[C@H](C[C@@H](C)[C@@H]2CC(=O)[C@H](C)/C=C(\\C)[C@H](O)[C@@H](OC)C(=O)[C@H](C)C[C@H](C)/C=C/C=C/C=C(\\C)[C@H](N(C)S(=O)(=O)N(C)C)C[C@@H]3CC[C@@H](C)[C@@](O)(O3)C(=O)C(=O)N3CCCC[C@H]3C(=O)O2)CC[C@H]1O [28-epi-7R-N-Me-dimethylsulfamide]")
653
>>> endpoint_value("COc1ccccc1COC1CC2CCC(C)C(O)(O2)C(=O)C(=O)N2CCCCC2C(=O)OC(C(C)CC2CCC(O)C(OC)C2)CC(=O)C(C)C=C(C)C(O)C(OC)C(=O)C(C)CC(C)C=CC=CC=C1C (single isomer, unassigned) [28-epi-7R-2′-methoxybenzyloxy]")
653
>>> endpoint_value("CO[C@@H]1C[C@H](C[C@@H](C)[C@@H]2CC(=O)[C@H](C)/C=C(\\C)[C@H](O)[C@@H](OC)C(=O)[C@H](C)C[C@H](C)/C=C/C=C/C=C(\\C)[C@H](NS(=O)(=O)N(C)c3ccccc3)C[C@@H]3CC[C@@H](C)[C@@](O)(O3)C(=O)C(=O)N3CCCC[C@H]3C(=O)O2)CC[C@H]1O [28-epi-7R-methylphenylsulfamide]")
22

* * *

Measured pEC50 by item
- target_system: transcriptional switch components containing FKBP and 2098L mutant FRB domains (Homo sapiens, UniProt P42345+P62942)
- Construct: transcriptional switchcomponents containing FKBP and 2098L mutant FRB domains, respectively; fused on or other part: The two switch components are separate chimeric proteins; Neither is given for this cell line
- Sequence (P62942 2-108 limits assumed, stated change not applied, other chains not shown): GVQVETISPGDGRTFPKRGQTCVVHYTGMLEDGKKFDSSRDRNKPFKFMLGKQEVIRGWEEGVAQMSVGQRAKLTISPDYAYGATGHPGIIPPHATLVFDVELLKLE
- method_summary: transcription assay in engineered HD1080 cells expressing SEAP (txn 2098L)
- Type: cell-based
- conditions: cellular transcription assay, methods of Example 2.5; read-out: TXN 2098L EC50
pEC50: −log10 of the molar value.
observation_type: pEC50

>>> endpoint_value("CCOC1CC2CCC(C)C(O)(O2)C(=O)C(=O)N2CCCCC2C(=O)OC(C(C)CC2CCC(O)C(OC)C2)CC(=O)C(C)C=C(C)C(O)C(OC)C(=O)C(C)CC(C)C=CC=CC=C1C (stereo not drawn) [28-epi-7S-ethoxy]")
7.82
>>> endpoint_value("CO[C@@H]1C[C@H](C[C@@H](C)[C@@H]2CC(=O)[C@H](C)/C=C(\\C)[C@H](O)[C@@H](OC)C(=O)[C@H](C)C[C@H](C)/C=C/C=C/C=C(\\C)[C@@H](OC(C)C)C[C@@H]3CC[C@@H](C)[C@@](O)(O3)C(=O)C(=O)N3CCCC[C@H]3C(=O)O2)CC[C@H]1O [28-epi-7S-isopropyloxy]")
7.54
>>> endpoint_value("CO[C@@H]1C[C@H](C[C@@H](C)[C@@H]2CC(=O)[C@H](C)/C=C(\\C)[C@H](O)[C@@H](OC)C(=O)[C@H](C)C[C@H](C)/C=C/C=C/C=C(\\C)[C@@H](N(C)S(=O)(=O)N(C)c3ccccc3)C[C@@H]3CC[C@@H](C)[C@@](O)(O3)C(=O)C(=O)N3CCCC[C@H]3C(=O)O2)CC[C@H]1O [28-epi-7S-N-Me-methylphenylsulfamide]")
7.59
>>> endpoint_value("CCOC(=O)N(C)C1CC2CCC(C)C(O)(O2)C(=O)C(=O)N2CCCCC2C(=O)OC(C(C)CC2CCC(O)C(OC)C2)CC(=O)C(C)C=C(C)C(O)C(OC)C(=O)C(C)CC(C)C=CC=CC=C1C (single isomer, unassigned) [28-epi-7R-N-methyl-ethylcarbamate]")
8.05
>>> endpoint_value("CCCS(=O)(=O)N(C)C1CC2CCC(C)C(O)(O2)C(=O)C(=O)N2CCCCC2C(=O)OC(C(C)CC2CCC(O)C(OC)C2)CC(=O)C(C)C=C(C)C(O)C(OC)C(=O)C(C)CC(C)C=CC=CC=C1C (single isomer, unassigned) [28-epi-7S-N-Me-propanesulfonamide]")
7.46
>>> endpoint_value("CO[C@@H]1C[C@H](C[C@@H](C)[C@@H]2CC(=O)[C@H](C)/C=C(\\C)[C@H](O)[C@@H](OC)C(=O)[C@H](C)C[C@H](C)/C=C/C=C/C=C(\\C)[C@H](N(C)S(=O)(=O)N(C)C)C[C@@H]3CC[C@@H](C)[C@@](O)(O3)C(=O)C(=O)N3CCCC[C@H]3C(=O)O2)CC[C@H]1O [28-epi-7R-N-Me-dimethylsulfamide]")
8.10
>>> endpoint_value("CCOC(=O)N(C)C1CC2CCC(C)C(O)(O2)C(=O)C(=O)N2CCCCC2C(=O)OC(C(C)CC2CCC(O)C(OC)C2)CC(=O)C(C)C=C(C)C(O)C(OC)C(=O)C(C)CC(C)C=CC=CC=C1C (single isomer, unassigned) [28-epi-7S-N-methyl-ethylcarbamate]")
7.92

* * *

- target_system: transcriptional switch components containing FKBP and 2098L mutant FRB domains (Homo sapiens, UniProt P42345+P62942)
- Construct: transcriptional switchcomponents containing FKBP and 2098L mutant FRB domains, respectively; fused on or other part: The two switch components are separate chimeric proteins; Neither is given for this cell line
- method_summary: transcription assay in engineered HD1080 cells expressing SEAP (txn 2098L)
- Format: cell-based
- conditions: cellular transcription assay, methods of Example 2.5; read-out: TXN 2098L EC50
observation_type: EC50 (nM)

>>> endpoint_value("CCCCS(=O)(=O)N[C@@H]1C[C@@H]2CC[C@@H](C)[C@@](O)(O2)C(=O)C(=O)N2CCCC[C@H]2C(=O)O[C@H]([C@H](C)C[C@@H]2CC[C@@H](O)[C@H](OC)C2)CC(=O)[C@H](C)/C=C(\\C)[C@H](O)[C@@H](OC)C(=O)[C@H](C)C[C@H](C)/C=C/C=C/C=C/1C [28-epi-7R-butanesulfonamide]")
20
>>> endpoint_value("CO[C@@H]1C[C@H](C[C@@H](C)[C@@H]2CC(=O)[C@H](C)/C=C(\\C)[C@H](O)[C@@H](OC)C(=O)[C@H](C)C[C@H](C)/C=C/C=C/C=C(\\C)[C@H](Oc3ccccc3)C[C@@H]3CC[C@@H](C)[C@@](O)(O3)C(=O)C(=O)N3CCCC[C@H]3C(=O)O2)CC[C@H]1O [28-epi-7R-phenyloxy]")
9
>>> endpoint_value("CO[C@@H]1C[C@H](C[C@@H](C)[C@@H]2CC(=O)[C@H](C)/C=C(\\C)[C@H](O)[C@@H](OC)C(=O)[C@H](C)C[C@H](C)/C=C/C=C/C=C(\\C)[C@H](NS(=O)(=O)N(C)c3ccccc3)C[C@@H]3CC[C@@H](C)[C@@](O)(O3)C(=O)C(=O)N3CCCC[C@H]3C(=O)O2)CC[C@H]1O [28-epi-7R-methylphenylsulfamide]")
27

* * *

Listed next: entries and their corresponding IC50.
- target_system: FKBP (Homo sapiens)
- Sequence (P62942 whole entry): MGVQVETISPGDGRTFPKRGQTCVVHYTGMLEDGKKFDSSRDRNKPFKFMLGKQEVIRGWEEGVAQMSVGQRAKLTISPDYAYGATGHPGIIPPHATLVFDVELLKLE
- method_summary: FKBP competitive binding assay based on fluorescence polarization (FP)
- conditions: competitive FP binding, methods of Example 2.5; read-out: FKBP IC50
observation_type: IC50

>>> endpoint_value("COC1CC(CC(C)C2CC(=O)C(C)C=C(C)C(O)C(OC)C(=O)C(C)CC(C)C=CC=CC=C(C)C(NC(=O)Oc3ccccc3)CC3CCC(C)C(O)(O3)C(=O)C(=O)N3CCCCC3C(=O)O2)CCC1O (stereo not drawn) [28-epi-7S-phenylcarbamate]")
"18 nM"
>>> endpoint_value("CO[C@@H]1C[C@H](C[C@@H](C)[C@@H]2CC(=O)[C@H](C)/C=C(\\C)[C@H](O)[C@@H](OC)C(=O)[C@H](C)C[C@H](C)/C=C/C=C/C=C(\\C)[C@@H](N(C)S(C)(=O)=O)C[C@@H]3CC[C@@H](C)[C@@](O)(O3)C(=O)C(=O)N3CCCC[C@H]3C(=O)O2)CC[C@H]1O [28-epi-7S-N-Me-methanesulfonamide]")
"21 nM"

* * *

pIC50 for assorted compounds
- System: murine splenocyte
- method_summary: murine splenocyte assay for immunosuppressive activity
- Format: cell-based
- conditions: mouse splenocyte assay, methods of Example 2.5; read-out: Splenocyte IC50
pIC50: −log10 of the molar value.
observation_type: pIC50

>>> endpoint_value("CO[C@@H]1C[C@H](C[C@@H](C)[C@@H]2CC(=O)[C@H](C)/C=C(\\C)[C@H](O)[C@@H](OC)C(=O)[C@H](C)C[C@H](C)/C=C/C=C/C=C(\\C)[C@@H](N(C)C(=O)Oc3ccc(C)cc3)C[C@@H]3CC[C@@H](C)[C@@](O)(O3)C(=O)C(=O)N3CCCC[C@H]3C(=O)O2)CC[C@H]1O [28-epi-7S-N-Me-p-tolylcarbamate]")
7.30
>>> endpoint_value("COC1CC(CC(C)C2CC(=O)C(C)C=C(C)C(O)C(OC)C(=O)C(C)CC(C)C=CC=CC=C(C)C(OCc3ccccc3)CC3CCC(C)C(O)(O3)C(=O)C(=O)N3CCCCC3C(=O)O2)CCC1O (single isomer, unassigned) [28-epi-7R-benzyloxy]")
6.50
>>> endpoint_value("CCCS(=O)(=O)N(C)C1CC2CCC(C)C(O)(O2)C(=O)C(=O)N2CCCCC2C(=O)OC(C(C)CC2CCC(O)C(OC)C2)CC(=O)C(C)C=C(C)C(O)C(OC)C(=O)C(C)CC(C)C=CC=CC=C1C (single isomer, unassigned) [28-epi-7R-N-Me-propanesulfonamide]")
5.86
>>> endpoint_value("COc1ccccc1COC1CC2CCC(C)C(O)(O2)C(=O)C(=O)N2CCCCC2C(=O)OC(C(C)CC2CCC(O)C(OC)C2)CC(=O)C(C)C=C(C)C(O)C(OC)C(=O)C(C)CC(C)C=CC=CC=C1C (single isomer, unassigned) [28-epi-7S-2′-methoxybenzyloxy]")
7.60
>>> endpoint_value("COC1CC(CC(C)C2CC(=O)C(C)C=C(C)C(O)C(OC)C(=O)C(C)CC(C)C=CC=CC=C(C)C(NC(=O)OCc3ccccc3)CC3CCC(C)C(O)(O3)C(=O)C(=O)N3CCCCC3C(=O)O2)CCC1O (stereo not drawn) [28-epi-7R-benzylcarbamate]")
5.65
>>> endpoint_value("COC1CC(CC(C)C2CC(=O)C(C)C=C(C)C(O)C(OC)C(=O)C(C)CC(C)C=CC=CC=C(C)C(NS(=O)(=O)N(C)C)CC3CCC(C)C(O)(O3)C(=O)C(=O)N3CCCCC3C(=O)O2)CCC1O (stereo not drawn) [28-epi-7R-dimethylsulfamide]")
5.73
